// provenance: patent US20220098547A1

# System: TSC2+/− LAM-SMCs
# method description: Cell viability (SyTox Green), LAM-SMCs
# Assay type: cell-based, human
# conditions: 80 kinase inhibitor screen, 5 μM, 384-well 3D hydrogel
readout kind: cell viability, selectivity towards LAM-SMCs vs control SMCs

See these solved cases before continuing.
Nc1nc(Nc2ccc(S(N)(=O)=O)cc2)nn1C(=S)Nc1c(F)cccc1F: selective decrease
Cc1ncc(-c2ccnc(Nc3ccc(S(C)(=O)=O)cc3)n2)n1C(C)C: selective decrease
CN1CCC(c2c(O)cc(O)c3c(=O)cc(-c4ccccc4Cl)oc23)C1CO (single isomer, unassigned; (+)) [(+)-P276]: selective decrease
CC(C)CC(=O)Nc1[nH]nc2c1CN(C(=O)C1CCN(C)CC1)C2(C)C: selective decrease

Here is another compound to look at.
Give the reported value of cell viability, selectivity towards LAM-SMCs vs control SMCs for this record: Cc1cc(Nc2cc(N3CCN(C)CC3)nc(/C=C/c3ccccc3)n2)n[nH]1
selective decrease
